Tested on: MDA-MB-231 breast
assay method text: NCI tumour cell line growth inhibition, 48 h
Some molecules, each annotated with its measured TGI.
quantity kind: TGI

molecule	assay target	experimental value
O=C(OCc1ccccc1)N1c2cc([N+](=O)[O-])ccc2C(=O)N2CCC[C@H]2C1O (stereo partly drawn)	MDA-MB-231 breast	> 100 µM
N#Cc1nc(/C=C/c2ccccc2)oc1N	MDA-MB-231 breast	> 100 µM
Nc1ccc(-n2c(=O)oc3ccc(Cl)cc3c2=O)c(Cl)c1	MDA-MB-231 breast	1.68 µM
O=C1CC/C(=C\COc2ccc3ccc(=O)oc3c2)O1	MDA-MB-231 breast	29.4 µM
CC[C@@H]1CC[C@@H]2[C@H](CC[C@]3(C)[C@@H](OS(=O)(=O)c4ccc(C)cc4)CC[C@@H]23)[C@H]1CO	MDA-MB-231 breast	> 100 µM
NC(=O)CS(=O)CC(N)C(=O)O (stereo not drawn)	MDA-MB-231 breast	> 100 µM
COc1cc(/C=C/C(=O)OC[C@H](Br)[C@H](OC(C)=O)c2ccc3c(c2)OCO3)cc(OC)c1OC	MDA-MB-231 breast	> 100 µM
CCOC(=O)C1=C(c2ccccc2)N(c2ccc(OC)cc2)[C@]2(C#N)C(O)=C(Cl)C(Cl)=C(O)[C@]12C#N	MDA-MB-231 breast	44.3 µM
